Test system: CCRF-CEM human T-cell acute lymphoblastic leukemia cell line
procedure_details: XTT cytotoxicity (cell growth inhibition), CCRF-CEM
recorded_conditions: Table 5; single determinations
For each entry below, report its IC50 value.
Numbers only here, please. The scale is nM.

Sample CCC[C@@]12CCC[C@H](C)[C@H](O)[C@@H](C)C(=O)C(C)(C)[C@@H](O)CC(=O)O[C@H](/C(C)=C/c3csc(C)n3)C[C@@H]1O2 — what was its IC50?
7.8

Sample C/C1=C/C[C@@H](/C(C)=C/c2ccccc2)OC(=O)C[C@H](O)C(C)(C)C(=O)[C@H](C)[C@@H](O)[C@@H](C)CCC1 — what was its IC50?
98

Sample C/C(=C\c1csc(C)n1)[C@@H]1C[C@@H]2O[C@@H]2CCC[C@H](C)[C@H](O)[C@@H](C)C(=O)C(C)(C)[C@@H](O)CC(=O)O1 [EPOTHILONE A SYNTHETIC, epothilone A] — what was its IC50?
2.1

###

Test system: PC-3 Human Prostate Carcinoma
procedure_details: PC-3 xenograft
Format: in vivo, nude mice
recorded_conditions: dEpoB 30 mg/kg 18 hr i.v. infusion, Taxol 16 mg/kg 6 hr infusion, VBL 2 and VP-16 25 mg/kg i.v. inj
For each entry below, report its Average Body Weight (change), Day 13 value.
Numbers only here, please. The scale is g.

Recall the recorded Average Body Weight (change), Day 13 for C/C1=C/C[C@@H](/C(C)=C/c2csc(C)n2)OC(=O)C[C@H](O)C(C)(C)C(=O)[C@H](C)[C@@H](O)[C@@H](C)CCC1 [Desoxyepothilone B, desoxyepothilone B] with PC-3 Human Prostate Carcinoma and state it.
-5.8

Recall the recorded Average Body Weight (change), Day 13 for COc1cc([C@@H]2c3cc4c(cc3[C@@H](O[C@@H]3O[C@@H]5CO[C@@H](C)O[C@H]5[C@H](O)[C@H]3O)[C@H]3COC(=O)[C@H]23)OCO4)cc(OC)c1O [Etoposide, etoposide] with PC-3 Human Prostate Carcinoma and state it.
-2.4

###

Tested on: A549 Human Lung Carcinoma
procedure_details: A549 xenograft
Assay type: in vivo, nude mice
recorded_conditions: initial weight; Q2D x 3: dEpoB 30 mg/kg 18 hr i.v. infusion, Taxol 15 mg/kg 6 hr infusion, VBL 2 and VP-16 25 mg/kg i.v. inj
Counter-ions that a name gives are not always drawn.
For each entry below, report its Average Body Weight, Day 7 value.
# answer = value followed by unit

Sample CC(=O)O[C@H]1C(=O)[C@@]2(C)[C@H]([C@H](OC(=O)c3ccccc3)[C@]3(O)C[C@H](OC(=O)[C@H](O)[C@@H](NC(=O)c4ccccc4)c4ccccc4)C(C)=C1C3(C)C)[C@]1(OC(C)=O)CO[C@@H]1C[C@@H]2O [Taxol ®, paclitaxel] — what was its Average Body Weight, Day 7?
27.6 g

Sample C/C1=C/C[C@@H](/C(C)=C/c2csc(C)n2)OC(=O)C[C@H](O)C(C)(C)C(=O)[C@H](C)[C@@H](O)[C@@H](C)CCC1 [Desoxyepothilone B, desoxyepothilone B] — what was its Average Body Weight, Day 7?
29.3 g

Sample COc1cc([C@@H]2c3cc4c(cc3[C@@H](O[C@@H]3O[C@@H]5CO[C@@H](C)O[C@H]5[C@H](O)[C@H]3O)[C@H]3COC(=O)[C@H]23)OCO4)cc(OC)c1O [Etoposide, etoposide] — what was its Average Body Weight, Day 7?
27.2 g

Sample CC[C@]1(O)C[C@@H]2CN(CCc3c([nH]c4ccccc34)[C@@](C(=O)OC)(c3cc4c(cc3OC)N(C)[C@H]3[C@@](O)(C(=O)OC)[C@H](OC(C)=O)[C@]5(CC)C=CCN6CC[C@]43[C@@H]65)C2)C1 [Vinblastine, Vinblastine sulfate] — what was its Average Body Weight, Day 7?
25.5 g
